target: Muscarinic acetylcholine receptor M1 (Rattus norvegicus); assay: Compound was tested for inhibition of [3H]pirenzepine binding against Muscarinic acetylcholine receptor M1 from rat cortical membranes using in vitro cholinergic receptor binding assay.
Sequence (P08482 whole entry): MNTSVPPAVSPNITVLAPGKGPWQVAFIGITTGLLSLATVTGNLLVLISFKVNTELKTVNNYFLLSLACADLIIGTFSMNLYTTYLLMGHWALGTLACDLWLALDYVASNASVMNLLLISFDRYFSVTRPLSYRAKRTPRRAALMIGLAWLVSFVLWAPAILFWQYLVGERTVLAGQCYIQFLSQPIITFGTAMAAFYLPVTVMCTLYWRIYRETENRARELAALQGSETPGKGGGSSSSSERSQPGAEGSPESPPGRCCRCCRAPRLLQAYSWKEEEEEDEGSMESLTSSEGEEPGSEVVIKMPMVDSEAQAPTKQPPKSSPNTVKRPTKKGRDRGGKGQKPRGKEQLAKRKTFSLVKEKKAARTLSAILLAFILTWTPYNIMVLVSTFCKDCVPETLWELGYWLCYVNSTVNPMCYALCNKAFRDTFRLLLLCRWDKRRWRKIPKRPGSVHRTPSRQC
Quantity measured: IC50 (µM)
Numbers only here, please. The scale is µM.

Sample `C=Cc1cccn1N(C)c1ccncc1` , system: Muscarinic acetylcholine receptor M1 (Rattus norvegicus). Its IC50 is 5.1

----------
test system: Mus musculus; assay: Antagonistic activity against scopolamine-induced behavioral deficits in mice by subcutaneous administration at a concentration of 0.63 mg/kg; format: functional
Listed here are compounds together with their documented Response.

# Compound structure, Target or system, Response
measured = [
    ("CCCCN(c1ccncc1)n1cccc1", "Mus musculus", "20%"),
    ("C=Cc1cccn1N(C)c1ccncc1", "Mus musculus", "33%"),
    ("C=CCN(c1ccncc1)n1cccc1", "Mus musculus", "20%"),
    ("CN(c1ccncc1)n1cccc1C=O", "Mus musculus", "27%"),
    ("CCN(c1ccncc1)n1cccc1Cl", "Mus musculus", "20%"),
    ("CCc1cccn1N(C)c1ccncc1", "Mus musculus", "20%"),
    ("CCCN(c1ccncc1)n1cccc1", "Mus musculus", "27%"),
    ("CN(c1ccncc1)n1ccc(C=O)c1", "Mus musculus", "33%"),
    ("O=Cc1cccn1Nc1ccncc1", "Mus musculus", "43%"),
]

Now consider the entry below.
Recorded result, `c1ccn(Nc2ccncc2)c1` , Response: 21%
